- assayed-target: T1, GFP-9S library array, motif 4 ND N98H (synthetic construct, N98H)
- T1 chain: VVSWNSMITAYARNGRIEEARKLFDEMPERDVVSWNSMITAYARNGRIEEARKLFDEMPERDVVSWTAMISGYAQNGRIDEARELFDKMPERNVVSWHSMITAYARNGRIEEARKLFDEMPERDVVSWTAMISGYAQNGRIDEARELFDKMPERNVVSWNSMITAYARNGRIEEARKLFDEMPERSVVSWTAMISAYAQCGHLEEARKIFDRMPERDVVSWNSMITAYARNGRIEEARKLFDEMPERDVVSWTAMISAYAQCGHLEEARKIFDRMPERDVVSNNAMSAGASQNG
- run-description: high-throughput RNA pulldown from lysate on Ni-NTA beads; HRP: 50 mM Tris pH 8, 150 mM NaCl, 1 mM beta-mercaptoethanol, 50 ug/ml BSA, 3 ug/ml yeast RNA, 0.5% heparin; ITC and FP: Tris pH 8, 200 mM KCl, 5% glycerol; MST: 50 mM Tris pH 8, 200 mM NaCl, 1 mM DTT, BSA, heparin, 0.05% Tween 20
- experimental-setup: tags: N-terminal His-eGFP; label: 5' IRDye 800CW
Measured pKd, listed per entry for reference.
The scale used: pKd is minus the common logarithm of the concentration in molar units.

AUUAUACGUGA (ssRNA) [IR-rpoA-U]    7.18

Query string: Entry AUUAAACGUGA (ssRNA) [IR-rpoA-A] has what pKd?
Result string: 6.33
